B1: Segment polarity protein dishevelled homolog DVL-3, residues 2 to 81; numbered along this chain, Q92997 (parent)
chain: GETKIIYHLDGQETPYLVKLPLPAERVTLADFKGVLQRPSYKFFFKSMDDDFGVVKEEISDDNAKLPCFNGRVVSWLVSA

Variants of: B1
Assay: abundance fitness (aPCA) (normalised: wild type 0, dead -1); higher = more abundant; growth selection in yeast, the domain comes from the species named
Settings: Homo sapiens
The entries below are paired with their reported abundance fitness.
The answer should be written as a number, with no unit following it.

Worked cases, abundance fitness given:
abundance fitness measured on GETKIIYHLDGQETPYLVKLPLPAERVTLADFKGVLVRPSYKFFFKSMDDDFGVVKEEISDDNAKLPCFNGRVVSWLVSA [Q37V] = -0.124

abundance fitness in this record for GETKIIYHLDGQETPYLVKLPLPAERVTLADFKGVLQRPSYKFFFKSMDDDFGVVKEEISDDNAVLPCFNGRVVSWLVSA [K65V] : 0.072

Form: variant = GETKIIYHLDGQETPYLVKLPLPAERVTLADFKGVLQRPSYKFFFKSMDDDFGVVKEEISDPNAKLPCFNGRVVSWLVSA [D62P] ; abundance fitness = -0.575

Lab book: abundance fitness of GETKIIYHLDGQETPYLVKLPLPAERVTLADFKGVLQRPSYKFFFKSMDDDFHVVKEEISDDNAKLPCFNGRVVSWLVSA [G53H] noted as 0.358

Note: attention shifts to another entry.
For this variant ( GETKIIYHLDGQETPYLVKLPLPAERVTLADFKGVLQRPSYKFFFKSMDDDFGVVKEEISDVNAKLPCFNGRVVSWLVSA [D62V] ), measured abundance fitness is -0.674
